- testedTarget: collagen (type and supplier not stated; Examples 11 and 12)
- experimentalDetails: fluorescence plate binding assay, dansyl label, collagen coated on 96-well plate
Where no end group is shown, it is not given here. The star is where a group is joined. Dansyl = CN(C)c1cccc2c(S(=O)(=O)*)cccc12
measuredMetric: pKd
Note on units: pKd is unitless, being -log10 of a concentration expressed in mol/L.

Req: # get_value(readout='pKd', item= Dansyl-GRRANAALKAGELYKSILYGC (Fluorescently labelled version of SILY; also called dansyl-modified peptide SILY) [Dansyl-GRRANAALKAGELYKSILYGC (Z-SILY)] )
Resp: 6.07

Source of measurements: patent US20130190246A1
